Values were extracted from ChEMBL document CHEMBL6178021.

- Test system: Plasmodium yoelii
- Procedure text: Antimalarial activity against erythrocytic Plasmodium yoelii MRA-428 infected in CF1 mouse assessed as reduction in parasitemia at 10 mg/kg, po once daily for 4 days measured on day 5
- Format: functional
- Design: scale not given: the % may be the effect or the level left
- Study conditions: time 4 day
// reported Activity per item
Record the result as number plus unit.

Example entries begin here.
COC1=C(OC)/C(=C/NC2CCCCCC2)N=C1c1ccc[nH]1 8.81%
CCC1=C(C)/C(=C/NC2CCCCC2)N=C1c1ccc(CC)[nH]1 45.7%
CCC1=C(C)/C(=C/NC2CCCCCCC2)N=C1c1ccc(CC)[nH]1 61.9%

# molecule `CCC1=C(CC)/C(=C/NC23C[C@H]4C[C@@H](C2)C[C@@H](C3)C4)N=C1c1ccc(-c2ccccc2)[nH]1` ; its Activity = 0%

# molecule `CCC1=C(C)/C(=C/NC2CCCCCC2)N=C1c1ccc(C)[nH]1` ; its Activity = 55.3%

# molecule `CCC1=C(CC)/C(=C/NC2CCCCC2)N=C1c1ccc(CC)[nH]1` ; its Activity = 98.9%

# molecule `CCC1=C(CC)/C(=C/NC2CCCCCC2)N=C1c1ccc(C)[nH]1` ; its Activity = 92.2%

# molecule `CCc1ccc(C2=N/C(=C\NC3CCCCCC3)C(OC)=C2OC)[nH]1` ; its Activity = 13.5%

# molecule `CCC1=C(CC)/C(=C/N[C@H]2CC[C@H](C(F)(F)F)CC2)N=C1c1ccc[nH]1` ; its Activity = 95.7%

# molecule `CCc1ccc(C2=N/C(=C\NC3CCCCC3)C3=C2OCCO3)[nH]1` ; its Activity = 0%

# molecule `COc1ccc(Cc2ccc(C3=N/C(=C\NC4CCCCC4)C4=C3OCCO4)[nH]2)cc1` ; its Activity = 5.01%
